# Test system: S. pyogenes
# assay_remarks: microbe, parasite or virus in culture
# Assay type: cell-based
# setup_conditions: strain 2094 Macrolide-R [erm(A)], clone selected with CEM-101
observed_property: Retest MIC after 10 Antibioticfree Subcultures (µg/mL)
Your answer should be a plain number; it is taken to be in µg/mL.

Answered examples (3):
molecule	target_under_test	reported
CC[C@H]1OC(=O)[C@H](C)[C@@H](O[C@H]2C[C@@](C)(OC)[C@@H](O)[C@H](C)O2)[C@H](C)[C@@H](O[C@@H]2O[C@H](C)C[C@H](N(C)C)[C@H]2O)[C@](C)(O)C[C@@H](C)CN(C)[C@H](C)[C@@H](O)[C@]1(C)O	S. pyogenes	4
CC[C@H]1OC(=O)[C@H](C)[C@@H](O[C@H]2C[C@@](C)(OC)[C@@H](O)[C@H](C)O2)[C@H](C)[C@@H](O[C@@H]2O[C@H](C)C[C@H](N(C)C)[C@H]2O)[C@](C)(OC)C[C@@H](C)C(=O)[C@H](C)[C@@H](O)[C@]1(C)O	S. pyogenes	8
CCC[C@@H]1C[C@@H](C(=O)N[C@@H]([C@H]2O[C@H](SC)[C@H](O)[C@@H](O)[C@H]2O)[C@H](C)Cl)N(C)C1	S. pyogenes	0.06

// below: Retest MIC after 10 Antibioticfree Subcultures requested for another molecule
Task: Please supply the value of reported Retest MIC after 10 Antibioticfree Subcultures for the item CC[C@H]1OC(=O)[C@H](C)C(=O)[C@H](C)[C@@H](O[C@@H]2O[C@H](C)C[C@H](N(C)C)[C@H]2O)[C@](C)(OC)C[C@@H](C)C(=O)[C@H](C)[C@H]2N(CCCCn3cnc(-c4cccnc4)c3)C(=O)O[C@]12C
Output: 0.5

----------
# Test system: N. meningitidis
# assay_remarks: MIC, CLSI broth microdilution, invasive isolates
# Assay type: cell-based
# setup_conditions: Neisseria meningitidis; 62 N. meningitidis isolates
observed_property: MIC50

molecule	reported
CO/N=C(\C(=O)N[C@@H]1C(=O)N2C(C(=O)O)=C(CSc3nc(=O)c(=O)[nH]n3C)CS[C@H]12)c1csc(N)n1 [CRO, ceftriaxone]	≤ 0.015 µg/mL
C[C@H]1COc2c(N3CCN(C)CC3)c(F)cc3c(=O)c(C(=O)O)cn1c23 [Levofloxacin, levofloxacin]	≤ 0.008 µg/mL

Let's switch to this molecule now.
Task: Name the recorded MIC50 of the item CC[C@H]1OC(=O)[C@@](C)(F)C(=O)[C@H](C)[C@@H](OC2OC(C)CC(N(C)C)C2O)[C@@](C)(OC)C[C@@H](C)C(=O)[C@H](C)[C@H]2N(CCCCn3cc(-c4cccc(N)c4)nn3)C(=O)O[C@]12C (stereo partly drawn) [CEM-101] in your answer.
Output: ≤ 0.015 µg/mL
